# Experimental System: UniProt:P21918
# Sequence (P21918 whole entry, looked up): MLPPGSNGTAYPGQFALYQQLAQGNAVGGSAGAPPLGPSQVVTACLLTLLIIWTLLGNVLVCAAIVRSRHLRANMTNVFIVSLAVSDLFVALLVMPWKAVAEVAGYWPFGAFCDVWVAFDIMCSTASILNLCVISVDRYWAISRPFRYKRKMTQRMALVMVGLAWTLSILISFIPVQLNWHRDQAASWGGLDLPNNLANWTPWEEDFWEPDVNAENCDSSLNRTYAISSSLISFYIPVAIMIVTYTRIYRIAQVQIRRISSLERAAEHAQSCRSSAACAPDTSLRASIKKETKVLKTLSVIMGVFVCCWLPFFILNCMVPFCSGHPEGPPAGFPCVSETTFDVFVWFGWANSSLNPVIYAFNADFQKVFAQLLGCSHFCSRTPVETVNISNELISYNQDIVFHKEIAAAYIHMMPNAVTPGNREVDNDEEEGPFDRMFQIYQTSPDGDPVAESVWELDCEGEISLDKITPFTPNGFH
# Test Description: D5 receptor allosteric modulators, concentration-response – cell-based, HEK293, CRE-luciferase, luminescence, EC30 dopamine, selectivity assay for D1 allosteric modulator project, dose response (AID 857);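 also: HEK 293 cells expressing human D5 with a CRE-driven luciferase reporter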
Active and inactive are the calls of the source.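 The calls were made as follows: active = a full or partial dose-response curve in at least two of three replicate runs; inactive = the rest.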
Measured Metric: outcome

In [3]: df
Out[3]:
                                   compound  data_value
0  CCC(Sc1nc(=O)cc(N)n1CCc1ccccc1)C(=O)Nc1ccccc1C#N (stereo unspecified)    inactive
1  C=CCNC(=O)C1CC(c2cccc(OC)c2)=NO1 (stereo unspecified)    inactive
2    COC(=O)c1c(-c2ccccc2)csc1NC(=O)c1ccco1    inactive
3     COc1ccc(C(=O)Nc2nnc(Cc3cccs3)s2)cc1OC    inactive
4                   NC(=O)NC(=O)Nc1ccccc1Cl    inactive
5   c1ccc(Cn2nnc3c(N4CCc5ccccc54)ncnc32)cc1    inactive
